Below, each of the molecules is paired with its reported GI50 value.
# Tested on: OVCAR-5
# assay-method-text: NCI tumour cell line growth inhibition, 48 h
Calls of active or inactive are those of the source. No stated cut-off is given here; in the data, active = GI50 up to about 1.1 µM and inactive = higher.

• COc1cc(CNc2c3ccccc3nc3ccccc23)cc(OC)c1OC = 3.92 µM (inactive)
• OCC1OC(n2cnc3cccnc32)CC1O (stereo not given) = > 100 µM (inactive)
• O=C(N/C(=C\c1ccc(/C=C(\NC(=O)c2ccccc2)c2nc3c(O)nc(S)nc3[nH]2)cc1)c1nc2c(O)nc(S)nc2[nH]1)c1ccccc1 = > 100 µM (inactive)

Lab note: measured GI50 of `CC(C)(Cc1ccccc1)Cc1cc(O)ccc1O` was 30.8 µM (inactive)

###

# Test system: MOLT-4
# assay-method-text: NCI tumour cell line growth inhibition, 48 h
The source made the active and inactive calls. Rule as the data show it: active = GI50 up to about 1.1 µM and inactive = higher.
value-kind: GI50

* COC(=O)C1C(O)C(C)C(O)OC1C(C)C(O)C(C)/C=C\C=C(/C)C(=O)Nc1c(C)c(OC(C)=O)c2c(c1O)C(=O)C(C)=C1OCOC(/C(C)=C/C(C)=O)=C12 (stereo unspecified) | 10.7 µM (inactive)
* OC1c2c(ccc3c2CCC3)CC12Cc1ccccc1C2 (stereo unspecified) | 26.6 µM (inactive)
* O=C1[C@H]2ON(c3ccccc3)C(c3ccccc3Cl)[C@H]2C(=O)N1c1ccc(Cc2ccc(N3C(=O)[C@@H]4ON(c5ccccc5)C(c5ccccc5Cl)[C@@H]4C3=O)cc2)cc1 (stereo partly specified) | > 100 µM (inactive)
* COC(=O)c1c/c(=N\NC(=O)CC(=O)Nc2ccccc2Cl)c2ccccc2o1 | > 100 µM (inactive)
* c1ccc2c(c1)N=C(NC1CCCCC1)CCN2 | 63.2 µM (inactive)

Now take the following molecule into account.
Lab note: measured GI50 of Cc1cc(O)cc2oc(=O)c3c(O)cc(O)cc3c12 [ALTERNARIOL] was 7.59 µM (inactive)

###

# Test system: BT-549
# assay-method-text: NCI tumour cell line growth inhibition, 48 h
The source made the active and inactive calls. Rule as the data show it: active = GI50 up to about 1.1 µM and inactive = higher.
Outcome field: choose from active, inactive

Solved entries:
- Cc1nc2c(cc1C(=O)NN)c(=O)n(C)c(=O)n2C: inactive
- Cc1cc(C)c2c(n1)S(=O)(=O)N(CCCN1CCN(c3cccc(Cl)c3)CC1)C(C(=O)c1ccc(Br)cc1)=C2O: inactive
- N#Cc1c(-c2ccccc2)[nH]c2ccccc2c1=O: inactive
- C/C=C(/C)C(=O)O[C@H]1CCN2CC=C(COC(=O)[C@@](O)([C@H](C)OC)C(C)(C)O)[C@H]12: inactive

Dear all, I need the recorded test outcome for `O=c1cc(NNc2cccc(F)c2)[nH]c(=S)[nH]1` , thank you.
inactive

Dear all, I need the recorded test outcome for CC(=O)OC(COc1ccc2c(c1)[n+]([O-])nc(N)[n+]2[O-])CN1CCCCC1 (stereo not given) , thank you.
inactive

Dear all, I need the recorded test outcome for `CCN(CC)c1ccc2cc(-c3nc(O)c4ccccc4n3)c(=N)oc2c1` , thank you.
inactive

Dear all, I need the recorded test outcome for C=C1C(=O)OC2CC(=C)C3CC=C(C)C3CC12 (stereo not given) , thank you.
inactive

Dear all, I need the recorded test outcome for `COc1ccc(NCn2nc(CCCCCCCCc3nn(CNc4ccc(OC)cc4)c(=S)o3)oc2=S)cc1` , thank you.
inactive

Dear all, I need the recorded test outcome for `CCC(=O)C(CCN1CCC2(CCCc3ccccc32)CC1)(c1ccccc1)c1ccccc1` , thank you.
active
